Measured values drawn from PubChem BioAssay (EPA / NIEHS) for this set.

- PROCEDURE SUMMARY: CCTE_Shafer_MEA_dev_per_burst_spike_percent: CCTE's Neural Network Formation Assay for Percent of Spikes in a Burst, Shafer Lab (AID 2284032)
The source made the active and inactive calls. The calls were made as follows: active = hit-call score of the fitted dose curve at least 0.9, where 1 is the maximum; inactive = score below 0.9.
Outcomes: active, inactive

compound=O=[N+]([O-])/N=C1\NCCN1Cc1ccc(Cl)nc1 classification=inactive
compound="ClC1C(Cl)C(Cl)C(Cl)C(Cl)C1Cl (stereo not drawn)" classification=inactive
compound="CC1(c2ccc(Oc3ccccc3)cc2)OC(=O)N(Nc2ccccc2)C1=O (stereo not drawn)" classification=active
compound=CC(C)N(C(=O)COc1nnc(C(F)(F)F)s1)c1ccc(F)cc1 classification=inactive
compound=COP(=S)(OC)Oc1ccc([N+](=O)[O-])cc1 classification=inactive
compound=Oc1cc(Cl)ccc1Oc1ccc(Cl)cc1Cl classification=active
compound=O=C(O)COc1ccc(Cl)cc1Cl classification=inactive
compound=CCC(C)(C)C(=O)OC1=C(c2ccc(Cl)cc2Cl)C(=O)OC12CCCCC2 classification=inactive
